viability, T/C reference
# Test system: 388556-164-R-J1-PDC complex spheroid viability;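 further: spheroids exposed to compound for 7 days before readout; 100% = DMSO vehicle control luminescence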
# method description: Anticancer human tumor 388556-164-R-J1-PDC patient-derived colon adenocarcinoma cell line growth inhibition [RAS]
# condition parameters: second compound 0.000949 µM; first compound 0.316 µM; active compounds read low
Provide the reading as a plain figure in %.

Sample records with viability, T/C:
compound	measurement target	viability, T/C / %
C=CC(=O)Nc1cc(Nc2nccc(-c3cn(C)c4ccccc34)n2)c(OC)cc1N(C)CCN(C)C + CCn1c(-c2cc(N3CCN(C)CC3)cnc2C(C)OC)c2c3cc(ccc31)-c1csc(n1)CC(NC(=O)C1CC1C)C(=O)N1CCCC(N1)C(=O)OCC(C)(C)C2	388556-164-R-J1-PDC complex spheroid viability	60.4
C=CC(=O)N1CCN(c2nc(OCC3CCCN3C)nc3c(F)c(-c4nc(N)cc(C)c4C(F)(F)F)c(Cl)cc23)C(C)C1 (stereo not drawn) + CCn1c(-c2cc(N3CCN(C)CC3)cnc2C(C)OC)c2c3cc(ccc31)-c1csc(n1)CC(NC(=O)C1CC1C)C(=O)N1CCCC(N1)C(=O)OCC(C)(C)C2	388556-164-R-J1-PDC complex spheroid viability	92.1
CC(Nc1ccc2c(c1)OCCn1cc(N3C(=O)OCC3C(F)F)nc1-2)C(N)=O (stereo not drawn) + CCn1c(-c2cc(N3CCN(C)CC3)cnc2C(C)OC)c2c3cc(ccc31)-c1csc(n1)CC(NC(=O)C1CC1C)C(=O)N1CCCC(N1)C(=O)OCC(C)(C)C2	388556-164-R-J1-PDC complex spheroid viability	71.9
Nc1ccn(C2OC(CO)C(O)C2(F)F)c(=O)n1 (stereo not drawn) + CCn1c(-c2cc(N3CCN(C)CC3)cnc2C(C)OC)c2c3cc(ccc31)-c1csc(n1)CC(NC(=O)C1CC1C)C(=O)N1CCCC(N1)C(=O)OCC(C)(C)C2	388556-164-R-J1-PDC complex spheroid viability	67.1

For the record NC1c2ccccc2OC12CCN(c1cnc3c(N4CCCc5ncccc54)n[nH]c3n1)CC2 (stereo not drawn) + CCn1c(-c2cc(N3CCN(C)CC3)cnc2C(C)OC)c2c3cc(ccc31)-c1csc(n1)CC(NC(=O)C1CC1C)C(=O)N1CCCC(N1)C(=O)OCC(C)(C)C2 , what value of viability, T/C is listed for 388556-164-R-J1-PDC complex spheroid viability? 39

Please give the result for Cc1nc(N2CCC3(CC2)COC(C)C3N)c(CO)nc1Sc1ccnc(N)c1Cl (stereo not drawn) + CCn1c(-c2cccnc2C(C)OC)c2c3cc(ccc31)N1CCOC(CC(NC(=O)C(C(C)C)N(C)C(=O)C3(F)CCN(C(=O)C#CC(C)(C)N(C)C)CC3)C(=O)N3CCCC(N3)C(=O)OCC(C)(C)C2)C1 too. 77.4

Please give the result for C[C@@H](NC(=O)c1ncnc(N)c1Cl)c1ncc(C(=O)Nc2cc(C(F)(F)F)c(Cl)cn2)s1 + CCn1c(-c2cccnc2C(C)OC)c2c3cc(ccc31)N1CCOC(CC(NC(=O)C(C(C)C)N(C)C(=O)C3(F)CCN(C(=O)C#CC(C)(C)N(C)C)CC3)C(=O)N3CCCC(N3)C(=O)OCC(C)(C)C2)C1 too. 115

Please give the result for CC(Nc1ccc2c(c1)OCCn1cc(N3C(=O)OCC3C(F)F)nc1-2)C(N)=O (stereo not drawn) + CCn1c(-c2cccnc2C(C)OC)c2c3cc(ccc31)N1CCOC(CC(NC(=O)C(C(C)C)N(C)C(=O)C3(F)CCN(C(=O)C#CC(C)(C)N(C)C)CC3)C(=O)N3CCCC(N3)C(=O)OCC(C)(C)C2)C1 too. 73

Source listed as PubChem BioAssay AID2060907.
